Target: Gal(b1-3)GlcNAc(b1-2)Man(a1-3)[Gal(b1-3)GlcNAc(b1-2)Man(a1-6)]Man(b1-4)GlcNAc(b1-4)GlcNAc
Assay: glycan array binding signal (z-score within array); higher = stronger binding
Details: glycan notation: IUPAC condensed, linker removed
The entries come from a sample that favours the strongest signals as a whole.
For each of the binders below, state its glycan array binding signal (z-score).

glycan array binding signal (z-score) in this record for UEA-I (Ulex europaeus), P22972 (protein) SDDLSFKFKNFSQNGKDLSFQGDASVIETGVLQLNKVGNNLPDETGGIARYIAPIHIWNCNTGEVASFITSFSFFMETSANPKAATDGLTFFLAPPDSPLRRAGGYFGLFEDTKDNDSSYQTVAVEFDTIGSPVNFDDPGFPHIGIDVNRVKSINAERWNKRYGLNNVANVEIIYEASSKTLTASLTYPSDQTSISVTSIVDLKEILPEWVSVGFSGGTYIGRQATHEVLNWYFTSNLINTNS : -0.101

glycan array binding signal (z-score) in this record for SLLPI (Mus musculus), Q9D9X8 (protein) MGICMSMYTQVLVPVDADGDHHILWSRFYERWGSCFNPCAGLVNCLPPHSSALYLCHRMEARSRAPRRQLCPPGITWLALAYLLSCLLASSKAKVFSRCELAKEMHDFGLDGYRGYNLADWVCLAYYTSGFNTNAVDHEADGSTNNGIFQISSRRWCRTLASNGPNLCRIYCTDLLNNDLKDSIVCAMKIVQEPLGLGYWEAWRHHCQGRDLSDWVDGCDF : -0.288

glycan array binding signal (z-score) in this record for Gal 7 (Canis lupus) (protein) MAGSSNVPHKTSLPEGIRVGTVMRIRGVVPNKAGRFYVNLLCGEAPGSEAALHFNPRLDESTVVFNTLEQGAWGREERGTGIPFQRGQPFDVLLIATDEGFKAVVGDSEYHHFRYRIPPARVRLLEVGGDLQLESVSVF : -0.08

glycan array binding signal (z-score) in this record for CALR truncated at D342 (Homo sapiens) (protein) EPAVYFKEQFLDGDGWTSRWIESKHKSDFGKFVLSSGKFYGDEEKDKGLQTSQDARFYALSASFEPFSNKGQTLVVQFTVKHEQNIDCGGGYVKLFPNSLDQTDMHGDSEYNIMFGPDICGPGTKKVHVIFNYKGKNVLINKDIRCKDDEFTHLYTLIVRPDNTYEVKIDNSQVESGSLEDDWDFLPPKKIKDPDASKPEDWDERAKIDDPTDSKPEDWDKPEHIPDPDAKKPEDWDEEMDGEWEPPVIQNPEYKGEWKPRQIDNPDYKGTWIHPEIDNPEYSPDPSIYAYDNFGVLGLDLWQVKSGTIFDNFLITNDEAYAEEFGNETWGVTKAAEKQMKD : -0.863

glycan array binding signal (z-score) in this record for CCL1 (Coprinopsis cinerea) (protein) MDTQAKPPAGRYVIYNRVLSPNGEKLALTYPGYQREALTLTPLHHSANQIWILNNWDATTSSLTPETARNTQVGWGSGNVPIVLPPGNYVWTLASSAGGYIIQDGGKTVYWNAGEAVANTKVSIGGDNGLQARWIFERV : -0.119

All values here come from the supplement of paper PMC8728848.
